Each item that follows carries a reported pIC50.
Tested on: L02
assay.text: Cytotoxicity against human HL7702 cells assessed as inhibition of cell proliferation measured after 48 hrs by MTT assay
Assay type: cell-based
experimental.setup: L02, 48 h
pIC50: −log10 of the molar value.

- structure.notation: "CCCCCCC(=O)O[C@@H]1[C@@]2(C(C)C)O[C@H]2[C@@H]2O[C@]23[C@]12O[C@H]2C[C@H]1C2=C(CC[C@@]13C)C(=O)OC2"
  pIC50: 7.38
- structure.notation: "CC(C)[C@]12O[C@H]1[C@@H]1O[C@]13[C@]1(O[C@H]1C[C@H]1C4=C(CC[C@@]13C)C(=O)OC4)[C@@H]2OC(=O)CCCCCCCCCC[P+](c1ccccc1)(c1ccccc1)c1ccccc1"
  pIC50: 6.38
- structure.notation: "CC(C)[C@]12O[C@H]1[C@@H]1O[C@]13[C@]1(O[C@H]1C[C@H]1C4=C(CC[C@@]13C)C(=O)OC4)[C@@H]2OC(=O)CCCCCC[P+](c1ccccc1)(c1ccccc1)c1ccccc1"
  pIC50: 6.50
- structure.notation: "CC(C)[C@]12O[C@H]1[C@@H]1O[C@]13[C@]1(O[C@H]1C[C@H]1C4=C(CC[C@@]13C)C(=O)OC4)[C@@H]2OC(=O)CCCC[P+](c1ccccc1)(c1ccccc1)c1ccccc1.[Br-]"
  pIC50: 4.76
- structure.notation: "CCCCCC(=O)O[C@@H]1[C@@]2(C(C)C)O[C@H]2[C@@H]2O[C@]23[C@]12O[C@H]2C[C@H]1C2=C(CC[C@@]13C)C(=O)OC2"
  pIC50: 6.82
- structure.notation: "CCCCCCCC(=O)O[C@@H]1[C@@]2(C(C)C)O[C@H]2[C@@H]2O[C@]23[C@]12O[C@H]2C[C@H]1C2=C(CC[C@@]13C)C(=O)OC2"
  pIC50: 7.20
- structure.notation: "CCCCCCCCCCC(=O)O[C@@H]1[C@@]2(C(C)C)O[C@H]2[C@@H]2O[C@]23[C@]12O[C@H]2C[C@H]1C2=C(CC[C@@]13C)C(=O)OC2"
  pIC50: 6.73
- structure.notation: "CC(C)[C@]12O[C@H]1[C@@H]1O[C@]13[C@]1(O[C@H]1C[C@H]1C4=C(CC[C@@]13C)C(=O)OC4)[C@@H]2OC(=O)CCCCCBr"
  pIC50: 7.07
- structure.notation: "CC(C)[C@]12O[C@H]1[C@@H]1O[C@]13[C@]1(O[C@H]1C[C@H]1C4=C(CC[C@@]13C)C(=O)OC4)[C@@H]2OC(=O)CCCCCCCCCCBr"
  pIC50: 6.64
- structure.notation: "CC(C)[C@]12O[C@H]1[C@@H]1O[C@]13[C@]1(O[C@H]1C[C@H]1C4=C(CC[C@@]13C)C(=O)OC4)[C@@H]2OC(=O)CCCCCCCBr"
  pIC50: 7.06
- structure.notation: "COc1cccc2c1C(=O)c1c(O)c3c(c(O)c1C2=O)C[C@@](O)(C(=O)CO)C[C@@H]3O[C@H]1C[C@H](N)[C@H](O)[C@H](C)O1"
  pIC50: 6.45
